Reported log10 Kd values for a set of binders
# MEASURED TARGET: T1, hNPR1-mFc:hBNP complex (human, UniProt P16860 103-134)
# T1 construct: also called human NPR1 complexed to BNP
# EXPERIMENT NOTES: SPR, mAb captured, 37C
All values: base-10 log of Kd in nM.

Check out these entries, answers already filled in.
[
  {
    "BINDER": "mAb25502 (antibody, human IgG4, V domains shown) VH: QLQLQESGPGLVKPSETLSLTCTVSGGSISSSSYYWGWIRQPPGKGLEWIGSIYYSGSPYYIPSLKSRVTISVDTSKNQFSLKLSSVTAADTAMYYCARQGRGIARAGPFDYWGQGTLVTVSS VL: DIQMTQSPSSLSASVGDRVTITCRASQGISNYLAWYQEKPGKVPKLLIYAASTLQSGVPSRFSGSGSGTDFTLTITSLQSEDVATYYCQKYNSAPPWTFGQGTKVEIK",
    "READOUT VALUE": 0.89
  },
  {
    "BINDER": "mAb22035 (antibody, human IgG4, V domains shown) VH: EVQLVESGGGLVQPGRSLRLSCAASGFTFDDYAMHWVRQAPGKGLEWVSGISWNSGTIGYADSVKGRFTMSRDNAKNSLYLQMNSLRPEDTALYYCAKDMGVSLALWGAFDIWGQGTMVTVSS VL: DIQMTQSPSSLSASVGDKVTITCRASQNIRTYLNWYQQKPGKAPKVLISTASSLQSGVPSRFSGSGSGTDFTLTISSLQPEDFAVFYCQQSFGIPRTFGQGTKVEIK",
    "READOUT VALUE": -0.26
  },
  {
    "BINDER": "mAb25479 (antibody, human IgG4, V domains shown) VH: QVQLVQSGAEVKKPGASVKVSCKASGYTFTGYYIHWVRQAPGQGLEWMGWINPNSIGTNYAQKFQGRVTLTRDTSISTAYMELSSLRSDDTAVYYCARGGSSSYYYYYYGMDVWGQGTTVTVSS VL: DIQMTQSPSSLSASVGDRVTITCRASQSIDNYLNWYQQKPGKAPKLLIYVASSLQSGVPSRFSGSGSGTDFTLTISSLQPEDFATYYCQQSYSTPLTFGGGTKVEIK",
    "READOUT VALUE": 0.58
  }
]

Please fill in: log10 Kd reported for mAb25491 (antibody, human IgG4, V domains shown) VH: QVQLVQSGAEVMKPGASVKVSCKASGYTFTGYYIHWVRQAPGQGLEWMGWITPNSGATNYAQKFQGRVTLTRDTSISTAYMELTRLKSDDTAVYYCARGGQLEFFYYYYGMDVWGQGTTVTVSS VL: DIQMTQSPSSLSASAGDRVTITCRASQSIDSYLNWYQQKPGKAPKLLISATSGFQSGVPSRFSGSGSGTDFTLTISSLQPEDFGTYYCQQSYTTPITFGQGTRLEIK = 0.39

Please fill in: log10 Kd reported for mAb22805 (antibody, human IgG4, V domains shown) VH: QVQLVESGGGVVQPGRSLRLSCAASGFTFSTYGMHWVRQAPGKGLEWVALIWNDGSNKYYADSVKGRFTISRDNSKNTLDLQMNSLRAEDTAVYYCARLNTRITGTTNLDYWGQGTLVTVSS VL: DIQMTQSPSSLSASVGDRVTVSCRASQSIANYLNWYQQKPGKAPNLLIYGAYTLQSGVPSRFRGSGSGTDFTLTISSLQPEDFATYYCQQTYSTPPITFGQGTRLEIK = 0.78

Please fill in: log10 Kd reported for mAb25508 (antibody, human IgG4, V domains shown) VH: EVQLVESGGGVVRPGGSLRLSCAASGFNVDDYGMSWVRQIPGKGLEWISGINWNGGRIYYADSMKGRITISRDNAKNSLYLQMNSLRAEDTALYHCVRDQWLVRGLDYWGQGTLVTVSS VL: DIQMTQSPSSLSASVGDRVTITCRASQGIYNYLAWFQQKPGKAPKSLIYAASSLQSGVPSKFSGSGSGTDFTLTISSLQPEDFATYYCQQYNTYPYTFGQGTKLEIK = -0.33

Please fill in: log10 Kd reported for mAb22033 (antibody, human IgG4, V domains shown) VH: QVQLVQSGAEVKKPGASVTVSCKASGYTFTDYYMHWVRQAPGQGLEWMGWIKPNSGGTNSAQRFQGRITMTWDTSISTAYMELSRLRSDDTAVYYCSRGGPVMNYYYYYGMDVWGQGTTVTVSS VL: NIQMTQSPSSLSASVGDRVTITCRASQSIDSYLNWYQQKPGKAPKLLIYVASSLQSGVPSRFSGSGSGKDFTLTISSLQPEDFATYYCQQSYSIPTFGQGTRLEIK = 0.25

Please fill in: log10 Kd reported for mAb25497 (antibody, human IgG4, V domains shown) VH: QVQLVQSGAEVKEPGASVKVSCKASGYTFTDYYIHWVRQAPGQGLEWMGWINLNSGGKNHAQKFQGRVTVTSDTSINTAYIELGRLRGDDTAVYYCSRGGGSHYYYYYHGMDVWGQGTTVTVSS VL: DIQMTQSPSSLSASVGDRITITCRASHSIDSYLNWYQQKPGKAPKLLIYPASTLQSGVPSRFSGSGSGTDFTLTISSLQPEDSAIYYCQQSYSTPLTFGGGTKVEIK = 0.37

Please fill in: log10 Kd reported for mAb22809 (antibody, human IgG4, V domains shown) VH: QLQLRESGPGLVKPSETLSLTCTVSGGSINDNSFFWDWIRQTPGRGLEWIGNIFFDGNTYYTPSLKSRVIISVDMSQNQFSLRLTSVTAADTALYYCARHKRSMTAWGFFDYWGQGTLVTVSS VL: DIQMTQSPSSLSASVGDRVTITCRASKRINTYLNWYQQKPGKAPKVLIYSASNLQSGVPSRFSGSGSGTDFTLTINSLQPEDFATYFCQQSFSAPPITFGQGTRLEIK = 0.55

Each recorded value in this set is attributed to patent US20240309103A1.
